Hey, just so you know, these numbers are from the supplement of paper PMC4466140.

# Study System: CaSho1
# Assay Summary: SPOT peptide array binding signal intensity (averaged, normalized) (arbitrary units (background-subtracted, floor 0; scale differs between SH3 domains)); higher = stronger binding of the SH3 domain to the peptide
Property Measured: SPOT peptide array binding signal intensity

>  <Binder>
RLPAPPPPPRRGPAP

>  <Qualifier Operator>
=

>  <Obs Value>
11

$$$$
>  <Binder>
MFLISPPASPPPEFD

>  <Qualifier Operator>
=

>  <Obs Value>
19

$$$$
>  <Binder>
NLKKRPPTAPQRKIS

>  <Qualifier Operator>
=

>  <Obs Value>
170

$$$$
>  <Binder>
QLMKNLPKIPLLNDI

>  <Qualifier Operator>
=

>  <Obs Value>
1860

$$$$
>  <Binder>
KDKKTKPTPPPKPSH

>  <Qualifier Operator>
=

>  <Obs Value>
6

$$$$
>  <Binder>
MKRSRPSRSIPYTTP

>  <Qualifier Operator>
=

>  <Obs Value>
250

$$$$
>  <Binder>
NTMKKRPAPPSLPSL

>  <Qualifier Operator>
=

>  <Obs Value>
1700

$$$$
>  <Binder>
NVLRKILEIPLHSFS

>  <Qualifier Operator>
=

>  <Obs Value>
75

$$$$
>  <Binder>
GPPPPLPPPLFPSSS

>  <Qualifier Operator>
≤

>  <Obs Value>
0

$$$$
>  <Binder>
PELAPKREAPKPPAN

>  <Qualifier Operator>
≤

>  <Obs Value>
0

$$$$
>  <Binder>
MAMRPIPPLPTESEY

>  <Qualifier Operator>
=

>  <Obs Value>
596

$$$$
>  <Binder>
KDKSRPPRPPPKPLH

>  <Qualifier Operator>
≤

>  <Obs Value>
0

$$$$
>  <Binder>
VPPVPLPFGIPPFPM

>  <Qualifier Operator>
=

>  <Obs Value>
25

$$$$
>  <Binder>
APKHAPPPVPNETDN

>  <Qualifier Operator>
≤

>  <Obs Value>
0

$$$$
>  <Binder>
ALRRRLPVTRSKINW

>  <Qualifier Operator>
=

>  <Obs Value>
1180

$$$$
